Each entry below carries its recorded Plant response rating, Pigweed.
Test system: pigweed (Amaranthus retroflexus)
test_protocol: Test A postemergence, pigweed
Assay type: in vivo
stated_conditions: 125 g ai/ha, 0 to 100 scale, 0 no effect, 100 complete control

[
  {
    "compound": "C[C@@H](Nc1ncc(C(F)(F)F)c(N)n1)c1cc2ccc(F)cc2s1 [Compound 46]",
    "Plant response rating, Pigweed": 100
  },
  {
    "compound": "C[C@@H](Nc1ncc(C(F)(F)F)c(N)n1)c1coc2cc(Cl)ccc12 [Compound 55]",
    "Plant response rating, Pigweed": 100
  },
  {
    "compound": "CC(=O)c1cnc(NC(C)c2cc3ccccc3s2)nc1N (stereo not drawn) [Compound 57]",
    "Plant response rating, Pigweed": 60
  },
  {
    "compound": "C[C@H](Nc1nc(N)c(C(F)(F)F)c(C(F)(F)F)n1)c1cc2ccccc2s1 [Compound 60]",
    "Plant response rating, Pigweed": 50
  },
  {
    "compound": "Cc1cccc2sc([C@@H](C)Nc3ncc(C(F)(F)F)c(N)n3)cc12 [Compound 115]",
    "Plant response rating, Pigweed": 100
  },
  {
    "compound": "CC(Nc1ncc(S(C)(=O)=O)c(N)n1)c1cc2ccccc2s1 (stereo not drawn) [Compound 107]",
    "Plant response rating, Pigweed": 80
  },
  {
    "compound": "CC(Nc1ncc(C(F)(F)F)c(N)n1)c1coc2cc(F)ccc12 (racemic) [Compound 51]",
    "Plant response rating, Pigweed": 100
  },
  {
    "compound": "Cc1nc(NC(C)c2cc3ccccc3s2)nc(N)c1C(F)(F)F (stereo not drawn) [Compound 105]",
    "Plant response rating, Pigweed": 0
  },
  {
    "compound": "C[C@H](Nc1ncc(C(F)(F)F)c(N)n1)c1cc2ccccc2n1C [Compound 76]",
    "Plant response rating, Pigweed": 0
  }
]

---

System: wheat (Triticum aestivum)
test_protocol: Test A postemergence, wheat
Format: in vivo
stated_conditions: 125 g ai/ha, 0 to 100 scale, 0 no effect, 100 complete control
experimental_endpoint: Plant response rating, Wheat

[
  {
    "molecule": "CC(F)c1nc(N[C@H](C)c2cc3ccccc3s2)nc(N)c1C(F)(F)F (stereo partly drawn) [Compound 108]",
    "experimental_endpoint": "Plant response rating, Wheat",
    "reported_result": 0
  },
  {
    "molecule": "CC[C@@H](Nc1ncc(C(F)(F)F)c(N)n1)c1cc2ccccc2s1 [Compound 43]",
    "experimental_endpoint": "Plant response rating, Wheat",
    "reported_result": 0
  },
  {
    "molecule": "Cc1nc(NC(C)c2cc3ccccc3s2)nc(N)c1C(F)(F)F (stereo not drawn) [Compound 105]",
    "experimental_endpoint": "Plant response rating, Wheat",
    "reported_result": 0
  },
  {
    "molecule": "C[C@@H](Nc1nc(N)c(C(F)(F)F)c(C(F)F)n1)c1cc2ccccc2s1 [Compound 109]",
    "experimental_endpoint": "Plant response rating, Wheat",
    "reported_result": 0
  },
  {
    "molecule": "Cc1nc(NC(C)c2coc3ccccc23)nc(N)c1C(F)(F)F (stereo not drawn) [Compound 106]",
    "experimental_endpoint": "Plant response rating, Wheat",
    "reported_result": 0
  },
  {
    "molecule": "C[C@H](Nc1nc(N)c(C(F)(F)F)c(C(F)(F)F)n1)c1cc2ccccc2s1 [Compound 60]",
    "experimental_endpoint": "Plant response rating, Wheat",
    "reported_result": 0
  },
  {
    "molecule": "Cc1ccc2c([C@@H](Nc3ncc(C(F)(F)F)c(N)n3)C3CC3)coc2c1 [Compound 91]",
    "experimental_endpoint": "Plant response rating, Wheat",
    "reported_result": 0
  },
  {
    "molecule": "C[C@@H](Nc1nc(N)c(C(F)(F)F)c(C(F)(F)F)n1)c1cc2ccccc2o1 [Compound 65]",
    "experimental_endpoint": "Plant response rating, Wheat",
    "reported_result": 30
  },
  {
    "molecule": "CC(Nc1ncc(C(F)(F)F)c(N)n1)c1coc2cc(Cl)ccc12 (racemic) [Compound 77]",
    "experimental_endpoint": "Plant response rating, Wheat",
    "reported_result": 20
  }
]

---

Test system: foxtail, giant (Setaria faberii)
test_protocol: Test A postemergence, giant foxtail
Assay type: in vivo
stated_conditions: 125 g ai/ha, 0 to 100 scale, 0 no effect, 100 complete control

[
  {
    "compound": "C[C@@H](Nc1ncc(C(F)(F)F)c(N)n1)c1csc2ccccc12",
    "Plant response rating, Foxtail, Giant": 50
  },
  {
    "compound": "C[C@H](Nc1ncc(C(F)(F)F)c(N)n1)c1cc2ccc(F)cc2s1",
    "Plant response rating, Foxtail, Giant": 0
  },
  {
    "compound": "CC[C@@H](Nc1ncc(C(F)(F)F)c(N)n1)c1cc2ccccc2s1",
    "Plant response rating, Foxtail, Giant": 30
  },
  {
    "compound": "C[C@H](Nc1nc(N)c(C(F)(F)F)c(C(F)(F)F)n1)C1Cc2ccccc2C1",
    "Plant response rating, Foxtail, Giant": 0
  },
  {
    "compound": "CC(Nc1ncc(C(F)(F)F)c(N)n1)c1coc2cccc(F)c12 (racemic)",
    "Plant response rating, Foxtail, Giant": 0
  },
  {
    "compound": "C[C@@H](Nc1nc(N)c(C(F)(F)F)c(C(F)(F)F)n1)C1Cc2ccccc2C1",
    "Plant response rating, Foxtail, Giant": 0
  },
  {
    "compound": "C[C@@H](Nc1ncc(C(F)(F)F)c(N)n1)c1cc2c(Cl)cccc2s1",
    "Plant response rating, Foxtail, Giant": 90
  },
  {
    "compound": "CC[C@@H](Nc1ncc(C(F)(F)F)c(N)n1)c1coc2ccccc12",
    "Plant response rating, Foxtail, Giant": 0
  }
]

---

System: pigweed (Amaranthus retroflexus)
test_protocol: Test A preemergence, pigweed
Format: in vivo
stated_conditions: 125 g ai/ha, 0 to 100 scale, 0 is no effect, 100 is complete control
Note that class boundaries on Pigweed plant response rating are L (below 20), M (20 to below 90), H (90 or more)

[
  {
    "molecule": "C[C@@H](Nc1ncc(C(F)(F)F)c(N)n1)c1coc2ccccc12 [Compound 52]",
    "class_assignment": "H"
  },
  {
    "molecule": "C[C@@H](Nc1ncc(C(F)(F)F)c(N)n1)c1coc2cc(Cl)ccc12 [Compound 55]",
    "class_assignment": "M"
  },
  {
    "molecule": "C[C@@H](Nc1ncc(C(F)(F)F)c(N)n1)c1csc2ccccc12 [Compound 41]",
    "class_assignment": "M"
  },
  {
    "molecule": "C[C@@H](Nc1ncc(C(F)(F)F)c(N)n1)c1cc2c(F)cccc2s1 [Compound 61]",
    "class_assignment": "H"
  },
  {
    "molecule": "C[C@@H](Nc1nc(N)c(C(F)(F)F)c(C(F)F)n1)c1cc2ccccc2o1 [Compound 111]",
    "class_assignment": "M"
  },
  {
    "molecule": "Cc1cccc2sc([C@@H](C)Nc3ncc(C(F)(F)F)c(N)n3)cc12 [Compound 115]",
    "class_assignment": "H"
  },
  {
    "molecule": "Nc1nc(NC(c2cc3ccccc3o2)C2CC2)ncc1C(F)(F)F (centres unmarked) [Compound 89]",
    "class_assignment": "L"
  },
  {
    "molecule": "CC(COc1cccc(C(F)(F)F)c1)Nc1ncc(C(F)(F)F)c(N)n1 (centres unmarked) [Compound 34]",
    "class_assignment": "L"
  },
  {
    "molecule": "C[C@H](Nc1ncc(C(F)(F)F)c(N)n1)c1coc2ccc(F)cc12 [Compound 56]",
    "class_assignment": "L"
  },
  {
    "molecule": "C[C@@H](Nc1ncc(C(F)(F)F)c(N)n1)c1cc2ccccc2n1C [Compound 98]",
    "class_assignment": "L"
  },
  {
    "molecule": "CC(Nc1nc(N)c(C(F)(F)F)c(C(F)(F)F)n1)c1coc2ccccc12 (centres unmarked) [Compound 87]",
    "class_assignment": "L"
  },
  {
    "molecule": "Cc1cc(F)cc(OCC(C)Nc2ncc(C(F)(F)F)c(N)n2)c1 (centres unmarked) [Compound 39]",
    "class_assignment": "M"
  },
  {
    "molecule": "C[C@@H](Nc1ncc(C#N)c(N)n1)c1cc2ccccc2s1 [Compound 104]",
    "class_assignment": "M"
  },
  {
    "molecule": "CC(Nc1ncc(S(C)(=O)=O)c(N)n1)c1cc2ccccc2s1 (centres unmarked) [Compound 107]",
    "class_assignment": "M"
  },
  {
    "molecule": "Cc1ccc2c([C@H](Nc3ncc(C(F)(F)F)c(N)n3)C3CC3)coc2c1 [Compound 90]",
    "class_assignment": "M"
  },
  {
    "molecule": "C[C@H](Nc1ncc(C(F)(F)F)c(N)n1)c1cc2c(F)cccc2o1 [Compound 74]",
    "class_assignment": "L"
  },
  {
    "molecule": "CC(Nc1nc(N)c(C(F)(F)F)c(C(F)(F)F)n1)c1cc2ccccc2o1 (racemic) [Compound 58]",
    "class_assignment": "L"
  },
  {
    "molecule": "CC(=O)c1cnc(NC(C)c2cc3ccccc3s2)nc1N (centres unmarked) [Compound 57]",
    "class_assignment": "M"
  },
  {
    "molecule": "C[C@@H](Nc1ncc(C(F)(F)F)c(N)n1)c1cc2cccc(F)c2s1 [Compound 75]",
    "class_assignment": "H"
  },
  {
    "molecule": "C[C@@H](Nc1ncc(C(F)(F)F)c(N)n1)c1cc2ccc(F)cc2s1 [Compound 46]",
    "class_assignment": "H"
  },
  {
    "molecule": "C[C@H](Nc1ncc(C(F)(F)F)c(N)n1)c1cc2ccc(F)cc2s1 [Compound 47]",
    "class_assignment": "L"
  },
  {
    "molecule": "CCC(Nc1ncc(C(F)(F)F)c(N)n1)c1coc2ccccc12 (racemic) [Compound 53]",
    "class_assignment": "M"
  },
  {
    "molecule": "C[C@@H](Nc1nc(N)c(C(F)(F)F)c(C(F)(F)F)n1)c1cc2ccccc2o1 [Compound 65]",
    "class_assignment": "L"
  },
  {
    "molecule": "C[C@@H](Nc1ncc(C(F)(F)F)c(N)n1)c1cc2c(Cl)cccc2s1 [Compound 116]",
    "class_assignment": "M"
  },
  {
    "molecule": "CC[C@H](Nc1ncc(C(F)(F)F)c(N)n1)c1cc2ccc(F)cc2s1 [Compound 49]",
    "class_assignment": "L"
  },
  {
    "molecule": "Nc1nc(N[C@@H](c2cc3ccccc3s2)C2CC2)ncc1C(F)(F)F [Compound 84]",
    "class_assignment": "H"
  },
  {
    "molecule": "C[C@@H](Nc1nc(N)c(C(F)(F)F)c(C(F)(F)F)n1)c1cc2ccccc2s1 [Compound 59]",
    "class_assignment": "M"
  },
  {
    "molecule": "CC(C)[C@@H](Nc1ncc(C(F)(F)F)c(N)n1)c1cc2ccccc2s1 [Compound 50]",
    "class_assignment": "L"
  }
]
